Entries and their measured self-cleavage follow.
B1: HDV Ribozyme (parent)
chain: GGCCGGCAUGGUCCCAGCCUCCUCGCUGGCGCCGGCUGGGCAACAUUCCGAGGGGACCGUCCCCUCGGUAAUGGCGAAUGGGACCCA

Variants of: B1
assay-protocol: self-cleavage, relative activity (ratio to wild type); higher = more cleavage; co-transcriptional

Worked examples, 2 variants total:
INSERT INTO assay_data (mutant_designation, property_measured, reported_measurement) VALUES
  ('G68A A70C', 'self-cleavage', 0.707),
  ('C24A C85G', 'self-cleavage', 0.69);

INPUT: Please report the measured self-cleavage for C62A A83G
OUTPUT: 0.683

src = the RNAGym collection of RNA variant scans (doi:10.7554/elife.80360)
